# credit: patent US20240400708A1

# Experimental target: feline FcRn complex (FcRn-α subunit and β-microglobulin) (feline)
# Experiment summary: SPR (Biacore), FcRn on SA chip, pH 6
pKd: −log10 of the molar value.
So basically: pKd at 9 or higher? That is TRUE. Lower than 9? That is FALSE.

Here are 5 binders together with their reported answers.
{"columns": ["Binder", "Group"],
 "data": [
  ["feline IgG1a mutant ID No. 271: S252F, S434Y, Q311W (antibody, part only; not given: Variable domains, not shown: another chain or arm of the molecule) constant: ASTTAPSVFPLAPSCGTTSGATVALACLVLGYFPEPVTVSWNSGALTSGVHTFPAVLQASGLYSLSSMVTVPSSRWLSDTFTCNVAHPPSNTKVDKTVRKTDHPPGPKPCDCPKCPPPEMLGGPSIFIFPPKPKDTLFISRTPEVTCLVVDLGPDDSDVQITWFVDNTQVYTAKTSPREEQFNSTYRVVSVLPILHWDWLKGKEFKCKVNSKSLPSPIERTISKAKGQPHEPQVYVLPPAQEELSRNKVSVTCLIKSFHPPDIAVEWEITGQPEPENNYRTTPPQLDSDGTYFVYSKLSVDRSHWQRGNTYTCSVSHEALHYHHTQKSLTQSPGK", "TRUE"],
  ["feline IgG1a mutant ID No. 302: A431K, S434P (antibody, part only; not given: Variable domains, not shown: another chain or arm of the molecule) constant: ASTTAPSVFPLAPSCGTTSGATVALACLVLGYFPEPVTVSWNSGALTSGVHTFPAVLQASGLYSLSSMVTVPSSRWLSDTFTCNVAHPPSNTKVDKTVRKTDHPPGPKPCDCPKCPPPEMLGGPSIFIFPPKPKDTLSISRTPEVTCLVVDLGPDDSDVQITWFVDNTQVYTAKTSPREEQFNSTYRVVSVLPILHQDWLKGKEFKCKVNSKSLPSPIERTISKAKGQPHEPQVYVLPPAQEELSRNKVSVTCLIKSFHPPDIAVEWEITGQPEPENNYRTTPPQLDSDGTYFVYSKLSVDRSHWQRGNTYTCSVSHEKLHPHHTQKSLTQSPGK", "FALSE"],
  ["feline IgG1a mutant ID No. 347: S252Y, S428M, S434F, L314K (antibody, part only; not given: variable domains and light chain, not shown: another chain or arm of the molecule) constant: ASTTAPSVFPLAPSCGTTSGATVALACLVLGYFPEPVTVSWNSGALTSGVHTFPAVLQASGLYSLSSMVTVPSSRWLSDTFTCNVAHPPSNTKVDKTVRKTDHPPGPKPCDCPKCPPPEMLGGPSIFIFPPKPKDTLYISRTPEVTCLVVDLGPDDSDVQITWFVDNTQVYTAKTSPREEQFNSTYRVVSVLPILHQDWKKGKEFKCKVNSKSLPSPIERTISKAKGQPHEPQVYVLPPAQEELSRNKVSVTCLIKSFHPPDIAVEWEITGQPEPENNYRTTPPQLDSDGTYFVYSKLSVDRSHWQRGNTYTCSVMHEALHFHHTQKSLTQSPGK", "TRUE"],
  ["feline IgG1a mutant ID No. 247: S252Y, S428M, S434Y (antibody, part only; not given: Variable domains, not shown: another chain or arm of the molecule) constant: ASTTAPSVFPLAPSCGTTSGATVALACLVLGYFPEPVTVSWNSGALTSGVHTFPAVLQASGLYSLSSMVTVPSSRWLSDTFTCNVAHPPSNTKVDKTVRKTDHPPGPKPCDCPKCPPPEMLGGPSIFIFPPKPKDTLYISRTPEVTCLVVDLGPDDSDVQITWFVDNTQVYTAKTSPREEQFNSTYRVVSVLPILHQDWLKGKEFKCKVNSKSLPSPIERTISKAKGQPHEPQVYVLPPAQEELSRNKVSVTCLIKSFHPPDIAVEWEITGQPEPENNYRTTPPQLDSDGTYFVYSKLSVDRSHWQRGNTYTCSVMHEALHYHHTQKSLTQSPGK", "TRUE"],
  ["feline IgG1a mutant ID No. 307: D401R, T403R (antibody, part only; not given: Variable domains, not shown: another chain or arm of the molecule; small tags and cut ends) constant: ASTTAPSVFPLAPSCGTTSGATVALACLVLGYFPEPVTVSWNSGALTSGVHTFPAVLQASGLYSLSSMVTVPSSRWLSDTFTCNVAHPPSNTKVDKTVRKTDHPPGPKPCDCPKCPPPEMLGGPSIFIFPPKPKDTLSISRTPEVTCLVVDLGPDDSDVQITWFVDNTQVYTAKTSPREEQFNSTYRVVSVLPILHQDWLKGKEFKCKVNSKSLPSPIERTISKAKGQPHEPQVYVLPPAQEELSRNKVSVTCLIKSFHPPDIAVEWEITGQPEPENNYRTTPPQLDSRGRYFVYSKLSVDRSHWQRGNTYTCSVSHEALHSHHTQKSLTQSPGK", "FALSE"]
]}

Then there is this binder:
Does the reported pKd for feline IgG1a mutant ID No. 279: S252R, S434Y (antibody, part only; not given: Variable domains, not shown: another chain or arm of the molecule) constant: ASTTAPSVFPLAPSCGTTSGATVALACLVLGYFPEPVTVSWNSGALTSGVHTFPAVLQASGLYSLSSMVTVPSSRWLSDTFTCNVAHPPSNTKVDKTVRKTDHPPGPKPCDCPKCPPPEMLGGPSIFIFPPKPKDTLRISRTPEVTCLVVDLGPDDSDVQITWFVDNTQVYTAKTSPREEQFNSTYRVVSVLPILHQDWLKGKEFKCKVNSKSLPSPIERTISKAKGQPHEPQVYVLPPAQEELSRNKVSVTCLIKSFHPPDIAVEWEITGQPEPENNYRTTPPQLDSDGTYFVYSKLSVDRSHWQRGNTYTCSVSHEALHYHHTQKSLTQSPGK fall at or above the 9 mark? FALSE
